Method Notes: High-throughput drug toxicity screening in the BPDCN cell line Cal-1 (AID 1224825);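 also: cells exposed to compounds for 48 h; 100% = DMSO and 0% = bortezomib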
Particulars: Cal-1 BPDCN cell viability, qHTS; at 45.8 µM (top of the series) unless noted
Observable: viability (% of control)

Examples from the recorded data:
> print(dat)
                                   compound                observable  recorded.value
1  CN(CCOc1ccc(CC2SC(=O)NC2=O)cc1)c1ccccn1 (stereo not given)  viability (% of control)            107%
2           Cc1nnc(NS(=O)(=O)c2ccc(N)cc2)s1  viability (% of control)           13.2%
3  COc1c(N2CCNC(C)C2)c(F)cc2c(=O)c(C(=O)O)cn(C3CC3)c12 (stereo not given)  viability (% of control)             78%

Please go through the list and note viability (% of control) for each compound.
1. CN(Cc1cc(Br)cc(Br)c1N)C1CCCCC1
2. CN(C)c1ccc(C(=C2C=CC(=[N+](C)C)C=C2)c2ccc(N(C)C)cc2)cc1
3. CC(=O)[C@H]1CC[C@H]2[C@@H]3CC=C4C[C@@H](O)CC[C@]4(C)[C@H]3CC[C@]12C
4. O=C(O)CSCC(=O)NC1CCSC1=O (stereo not given)
5. CNCC[C@H](Oc1cccc2ccccc12)c1cccs1
6. CC(C)(C)NC(=O)[C@H]1CC[C@H]2[C@@H]3CC[C@H]4NC(=O)C=C[C@]4(C)[C@H]3CC[C@]12C

107%
1.42%
107%
112%
39.6%
4.87%

Just so you know, measured viability (% of control) for CC(=O)[C@H]1CC[C@H]2[C@@H]3CCC4=CC(=O)CC[C@]4(C)[C@H]3CC[C@]12C came out at 79.9%

---

Method Notes: qHTS drug screen for cell cycle checkpoint inhibitors in PARPi-resistant BRCA-mutant ovarian cancer cell lines. (AID 1963452)
Particulars: PEO1/OlaR viability, CellTiter-Glo luminescence, 96 h; measured here: PEO1 parental Z-AUC; stronger effect = lower value
Text: Women's Malignancies Branch, Center for Cancer Research (CCR), National Cancer Institute (NCI), National Institutes of Health (NIH), Bethesda, MD Poly (ADP-ribose) polymerase inhibitors (PARPis) have changed the treatment paradigm in breast cancer gene (BRCA) - mutant high-grade serous ovarian carcinoma (HGSC). […] 6; Detection; Luminescence, PHERAstar (BMG Labtech) plate reader. […] 6. Luminescence readings were taken using PHERAstar (BMG Labtech). […]
We label by threshold. Values of Z-AUC strictly beneath 1 are Met. Values of 1 and up are Not met.

> print(dat)
                                   molecule  class.label
1  O=C(O)CCn1c2c(c3ccccc31)C[C@H](NS(=O)(=O)c1ccc(F)cc1)CC2          Met
2       Cc1cccc(N(C)C(=S)Oc2ccc3ccccc3c2)c1          Met
3                           NNC(=O)c1ccncc1      Not met
4  CCN(CC)CCn1c(=O)c(Cc2ccc(OC)cc2)nc2ccccc21      Not met
5   N=C(N)c1ccc(OCCCCCOc2ccc(C(=N)N)cc2)cc1          Met

I wonder whether CC(C)C1CCC(C(=O)N[C@H](Cc2ccccc2)C(=O)O)CC1 (some centres not stated) has Z-AUC below 1. Can you tell?
Not met

I wonder whether COc1ccc(C(=O)CC(=O)c2ccc(C(C)(C)C)cc2)cc1 has Z-AUC below 1. Can you tell?
Met

I wonder whether CCCCOc1ccc(CC(=O)NO)cc1 has Z-AUC below 1. Can you tell?
Met

I wonder whether CCOC(=O)[C@H](CCc1ccccc1)N[C@H]1CS[C@H](c2cccs2)CN(CC(=O)O)C1=O has Z-AUC below 1. Can you tell?
Met

I wonder whether CNNCc1ccc(C(=O)NC(C)C)cc1 has Z-AUC below 1. Can you tell?
Met

I wonder whether O=S(=O)(O)CCS has Z-AUC below 1. Can you tell?
Not met

I wonder whether CN(CCOc1ccc(CC2SC(=O)NC2=O)cc1)c1ccccn1 (configuration not stated) has Z-AUC below 1. Can you tell?
Met

---

Would you mind telling me the reported activation of each entry?
Method Notes: qHTS assay for small molecule activators of the p53 signaling pathway (AID 651743); also: % of control where 0% means no effect
Particulars: HCT-116 p53RE-bla, beta-lactamase FRET ratio, 16 h; stronger effect = higher value
Records with an inconclusive call do not appear.
Give bare numbers, in %.

Examples from the recorded data:
> print(dat)
                            chemical.smiles  observable  recorded.value
1                 Cc1ncc([N+](=O)[O-])n1CCO  activation           -1.78
2  COc1ccc2cc3[n+](cc2c1OC)CCc1cc2c(cc1-3)OCO2  activation             9.7
3              O=C(O)c1cc(=O)[nH]c(=O)[nH]1  activation           -1.01

Moving on to another molecule below.
Just so you know, measured activation for CC[C@H](C)C(=O)O[C@H]1C[C@@H](C)C=C2C=C[C@H](C)[C@H](CC[C@@H]3C[C@@H](O)CC(=O)O3)[C@H]21 came out at -3.22

---

Method Notes: S16 Schwann cell PMP22 intronic element firefly luciferase assay (AID 624032); also: nearly all actives have a fitted effect of over 30% in size
Particulars: S16 rat Schwann cells, PMP22 element FLuc, 24 h; series mostly up to 57.5 µM
Records with an inconclusive call do not appear. The source made the active and inactive calls. The call rests on the fitted dose curve; in most records, active means well fitted inhibition curve with a large enough effect; inconclusive means small, poorly fitted or top-dose-only effect; inactive means no such curve, though single readings can be large or run the other way.
Outcomes you can answer with include only these: active, inactive

> print(dat)
                                   compound  class.label
1                            NC(=O)c1cccnc1     inactive
2  CCOCC(O)COc1ccc(NC(=O)CC[S+](C)C)cc1 (stereo not given)     inactive
3                    S=P(N1CC1)(N1CC1)N1CC1     inactive

State the result this test recorded for Cc1cccc(N(C)C(=S)Oc2ccc3ccccc3c2)c1 .
inactive

State the result this test recorded for Clc1ccccc1CN1CCc2sccc2C1 .
inactive

State the result this test recorded for Cc1ccnc2c1NC(=O)c1cccnc1N2C1CC1 .
inactive

State the result this test recorded for CC1=NN(c2ccccc2)C(=O)C1 .
inactive

State the result this test recorded for O=c1oc2c(O)c(O)cc3c(=O)oc4c(O)c(O)cc1c4c23 .
inactive

State the result this test recorded for CCCc1cc(C(N)=S)ccn1 .
inactive

State the result this test recorded for O=C(O)c1cc(=O)[nH]c(=O)[nH]1 .
inactive

State the result this test recorded for CC[C@H](C)C(=O)O[C@H]1C[C@@H](C)C=C2C=C[C@H](C)[C@H](CC[C@@H]3C[C@@H](O)CC(=O)O3)[C@H]21 .
inactive

State the result this test recorded for CN(C)c1ccc(C(=C2C=CC(=[N+](C)C)C=C2)c2ccc(N(C)C)cc2)cc1 .
active

State the result this test recorded for OC(Cn1cncn1)(Cn1cncn1)c1ccc(F)cc1F .
inactive

State the result this test recorded for CCCCCCNC(=O)n1cc(F)c(=O)[nH]c1=O .
inactive

State the result this test recorded for CN(CCOc1ccc(CC2SC(=O)NC2=O)cc1)c1ccccn1 (stereo not given) .
inactive

State the result this test recorded for O=C(O)c1cccnc1 .
inactive

State the result this test recorded for CNNCc1ccc(C(=O)NC(C)C)cc1 .
inactive

State the result this test recorded for CNC1CCCN(c2c(F)cc3c(=O)c(C(=O)O)cn(C4CC4)c3c2OC)C1 (stereo not given) .
inactive

---

Method Notes: Quantitative High-Throughput drug screen in 47 multiple myeloma cell lines against the NCATS MIPE library collection: Karpas417_ECACC cell viability assay (AID 1918961); also: potency is read from the fitted curve at half-maximal effect
Particulars: Karpas417 myeloma viability, CellTiter-Glo ATP luminescence, 48 h
Results filed as inconclusive are left out. Calls of active or inactive are those of the source. The call rests on the fitted dose curve; in most records, active means well fitted cell-killing curve with a large enough effect; inconclusive means small, poorly fitted or top-dose-only effect, or effect the other way; inactive means no such curve, though single readings can be large or run the other way.
Observable: Potency

> print(dat)
                                   compound    recorded.value
1  COc1cc2nc(N3CCCN(C)CC3)nc(NC3CCN(Cc4ccccc4)CC3)c2cc1OC  2.35 µM (active)
2  CCN1CCCC1CNC(=O)c1cc(S(N)(=O)=O)ccc1OC (stereo not drawn)          inactive
3  COC(c1ccccc1)(c1ccccc1)[C@H](Oc1nc(C)cc(C)n1)C(=O)O          inactive

---

Method Notes: NS1 protein of Zika virus - qHTS assay to identify small molecule inhibitors in human HEK 293 cells (AID 1347053);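 also: plate controls were infected untreated cells for no effect and uninfected cells for full effect; nearly all actives have a fitted effect of over 55% in size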
Particulars: HEK293 ZIKV MR766 infection, NS1 TR-FRET, 24 h; series mostly up to 46.1 µM
Results filed as inconclusive are left out. The source made the active and inactive calls. The call rests on the fitted dose curve; in most records, active means well fitted inhibition curve with a large enough effect; inconclusive means small, poorly fitted or top-dose-only effect; inactive means no such curve, though single readings can be large or run the other way.
Outcomes you can answer with include only these: True = active, False = inactive

> print(dat)
                                   compound  class.label
1  COc1cc([C@@H]2c3cc4c(cc3[C@H](O)[C@H]3COC(=O)[C@H]23)OCO4)cc(OC)c1OC        False

State the result this test recorded for NC(=O)c1cccnc1 .
False

State the result this test recorded for CN1CCN(c2c(F)cc3c(=O)c(C(=O)O)cn(CCF)c3c2F)CC1 .
False

State the result this test recorded for Cn1nnc2c(C(N)=O)ncn2c1=O .
False

State the result this test recorded for CC1CC2C3CCC4=CC(=O)C=C[C@]4(C)[C@@]3(F)[C@@H](O)C[C@]2(C)[C@@]1(O)C(=O)CO (some centres undefined) .
False

State the result this test recorded for COCCCOc1cc(C[C@@H](C[C@H](N)[C@@H](O)C[C@H](C(=O)NCC(C)(C)C(N)=O)C(C)C)C(C)C)ccc1OC .
False
